- Test system: INS1
- protocol.text: beta cell apoptosis inhibitors, cytokine rescue, dose response, luminescence, retest (AID 449756);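 also: cell death triggered by IL-1 beta plus TNF-alpha plus IFN-gamma mixture; protective hits raise ATP signal compared with cytokine alone wells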
- Assay type: functional, cell-based
- cond: Rattus norvegicus
The source made the active and inactive calls.
measure.name: AC50

Known results for molecules:
O=S(=O)(c1ccc2c(c1)OCCO2)N1CCN(c2ncnc3sccc23)CC1 = 3.37 µM (active)
Cc1cc(/C=N/n2cnnc2)c(C)n1-c1ccc(OCc2ccc(Cl)cc2Cl)cc1 = 1.6 µM (active)
CC(=O)c1sc(NC(=O)C2(F)C(F)(F)C(F)(F)C(F)(F)C(F)(F)C2(F)F)nc1C = 4.23 µM (active)
C[C@H](CO)N1C[C@H](C)[C@@H](CN(C)C(=O)NC2CCCCC2)Oc2c(NC(=O)Nc3ccc(C(F)(F)F)cc3)cccc2C1=O = 27.7 µM (active)

Now take the following molecule into account.
Task: If you can, please state the reported AC50 value of Cc1ccc2c(C)nc(Nc3nc(O)cc(CSc4nc5ccccc5[nH]4)n3)nc2c1 .
Output: 61.7 µM (active)

----------
- measured.target: Peroxisome proliferator-activated receptor gamma/Nuclear receptor coactivator 2 (Homo sapiens)
- Sequence (P37231 whole entry): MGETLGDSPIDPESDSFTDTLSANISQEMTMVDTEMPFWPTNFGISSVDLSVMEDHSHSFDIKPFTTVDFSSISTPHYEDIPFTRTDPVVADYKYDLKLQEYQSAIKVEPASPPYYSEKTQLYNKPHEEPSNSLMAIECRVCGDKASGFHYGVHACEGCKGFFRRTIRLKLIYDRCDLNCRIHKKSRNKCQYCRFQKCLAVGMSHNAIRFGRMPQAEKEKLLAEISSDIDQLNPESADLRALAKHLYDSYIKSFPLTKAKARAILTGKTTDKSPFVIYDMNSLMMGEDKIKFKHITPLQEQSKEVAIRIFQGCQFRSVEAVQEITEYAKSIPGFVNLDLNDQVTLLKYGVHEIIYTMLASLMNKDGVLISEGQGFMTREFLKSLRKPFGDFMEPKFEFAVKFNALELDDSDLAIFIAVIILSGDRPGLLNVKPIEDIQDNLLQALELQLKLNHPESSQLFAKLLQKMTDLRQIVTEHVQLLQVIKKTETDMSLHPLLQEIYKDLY
- Sequence (Q15596 whole entry, further chain): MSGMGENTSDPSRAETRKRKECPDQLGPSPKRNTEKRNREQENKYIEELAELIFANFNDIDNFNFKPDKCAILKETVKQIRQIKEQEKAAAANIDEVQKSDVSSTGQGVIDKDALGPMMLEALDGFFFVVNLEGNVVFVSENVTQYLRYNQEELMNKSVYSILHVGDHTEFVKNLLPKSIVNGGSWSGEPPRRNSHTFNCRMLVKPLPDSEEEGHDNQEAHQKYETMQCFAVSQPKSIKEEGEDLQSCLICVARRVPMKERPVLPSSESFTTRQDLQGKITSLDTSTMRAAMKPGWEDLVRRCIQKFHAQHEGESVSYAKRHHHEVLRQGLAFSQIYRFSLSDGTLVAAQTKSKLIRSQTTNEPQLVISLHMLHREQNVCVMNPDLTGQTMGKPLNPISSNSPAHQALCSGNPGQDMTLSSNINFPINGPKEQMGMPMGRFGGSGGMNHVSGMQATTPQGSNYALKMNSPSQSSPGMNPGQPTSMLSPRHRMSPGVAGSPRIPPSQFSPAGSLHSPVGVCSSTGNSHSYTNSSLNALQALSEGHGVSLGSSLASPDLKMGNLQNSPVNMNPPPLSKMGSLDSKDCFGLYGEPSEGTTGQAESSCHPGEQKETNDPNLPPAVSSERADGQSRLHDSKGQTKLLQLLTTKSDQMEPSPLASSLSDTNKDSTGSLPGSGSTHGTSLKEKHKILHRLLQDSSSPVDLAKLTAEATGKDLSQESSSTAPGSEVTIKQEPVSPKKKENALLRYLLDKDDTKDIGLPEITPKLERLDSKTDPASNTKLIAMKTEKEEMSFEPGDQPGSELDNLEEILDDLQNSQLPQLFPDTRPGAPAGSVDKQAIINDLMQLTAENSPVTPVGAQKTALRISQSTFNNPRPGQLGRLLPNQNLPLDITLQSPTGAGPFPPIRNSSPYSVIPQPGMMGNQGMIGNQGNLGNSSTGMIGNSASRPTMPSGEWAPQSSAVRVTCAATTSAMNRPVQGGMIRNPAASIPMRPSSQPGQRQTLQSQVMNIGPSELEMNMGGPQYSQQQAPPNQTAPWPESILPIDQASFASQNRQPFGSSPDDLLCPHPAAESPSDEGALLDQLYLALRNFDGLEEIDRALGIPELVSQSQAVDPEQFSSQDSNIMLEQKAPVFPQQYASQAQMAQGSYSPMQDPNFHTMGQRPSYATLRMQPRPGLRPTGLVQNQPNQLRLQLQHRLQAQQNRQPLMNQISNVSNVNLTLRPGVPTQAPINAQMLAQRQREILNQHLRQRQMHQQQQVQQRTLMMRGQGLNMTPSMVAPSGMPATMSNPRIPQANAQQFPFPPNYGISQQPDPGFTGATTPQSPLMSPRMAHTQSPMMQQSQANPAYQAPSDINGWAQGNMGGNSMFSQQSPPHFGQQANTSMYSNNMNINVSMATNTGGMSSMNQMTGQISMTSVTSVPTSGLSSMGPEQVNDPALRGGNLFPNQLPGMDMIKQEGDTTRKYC
- protocol.text: TR-FRET dose response biochemical High Throughput Screening assay for agonists of the steroid receptor coactivator 2 (SRC-2) recruitment by the peroxisome proliferator-activated receptor gamma (PPAR gamma): non-selective agonists. [Related pubchem assays: 1297, 1032 ]
- Format: functional
Active and inactive are the calls of the source.
measure.name: EC50

Example entries and their recorded answers appear below.
COc1ccccc1-c1n[nH]c(=S)n1-c1ccccc1 = 6.26 µM (active)
COc1ccccc1-c1nnc(S)o1 = 11.9 µM (not active)
CCn1c(=O)cc(SCC(=O)N2CCOCC2)c2ccccc21 = > 79.4 µM (not active)

Moving on to the next compound.
Task: Param item = CN1/C(=C\C=C\C2=[N+](C)c3ccc4ccccc4c3C2(C)C)C(C)(C)c2ccccc21.[O-][Cl+3]([O-])([O-])[O-] ; retrieve measured EC50.
Output: 8.19 µM (active)

----------
- protocol.text: C. albicans growth with fluconazole, confirmation, fluorescence, retest (AID 2467)
- Type: functional, cell-based
Calls of active or inactive are those of the source.
measure.name: EC50

Please review the following examples before continuing.
CCCC(=O)NC(c1ccc(N(C)C)cc1)c1ccc2cccnc2c1O (centres undefined) = 0.626 µM (active)
CCn1c(=O)c(C(=O)NCc2cccnc2)c(O)c2ccccc21 = > 38 µM (not active)
COc1ccc(/C=N/NC(=O)c2cc(O)c(O)c(O)c2)cc1Cn1cc([N+](=O)[O-])cn1 = 3.25 µM (active)

Task: Please look up its EC50: COc1ccc(NC(=O)NC(C)c2ccccc2)cc1 (centres undefined)
Output: > 38 µM (not active)

----------
- measured.target: Nonstructural protein 1 (Influenza A virus)
- Sequence (Q194T2 whole entry): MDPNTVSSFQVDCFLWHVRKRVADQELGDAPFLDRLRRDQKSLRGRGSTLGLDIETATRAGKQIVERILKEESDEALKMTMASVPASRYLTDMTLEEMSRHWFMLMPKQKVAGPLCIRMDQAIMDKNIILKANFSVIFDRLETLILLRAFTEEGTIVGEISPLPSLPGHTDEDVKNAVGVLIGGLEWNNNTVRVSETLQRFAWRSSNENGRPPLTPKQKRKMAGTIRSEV
- Format: functional, Influenza A virus (A/California/07/2009(H1N1))
The source made the active and inactive calls.
measure.name: IC50

CC(=O)Nc1ccc(S(=O)(=O)NC2=C(N3CCN(Cc4ccccc4)CC3)C(=O)c3ccccc3C2=O)cc1 = 21.4 µM (active)
O=C(NC(=S)NNC(=O)c1ccccc1O)c1cccc([N+](=O)[O-])c1 = 15.3 µM (active)
COc1cc(/C=C2/C(=O)N(c3cccc(Br)c3)N=C2C)cc(OC)c1O = 14.5 µM (active)

Task: What IC50 value was documented for this molecule, CN1CCN(CCC(=O)N/N=C/c2cc([N+](=O)[O-])ccc2O)CC1 ?
Output: 17.3 µM (active)

Task: Any idea what its IC50 is? The molecule is COc1ccc(Cc2nnc(NN)nc2O)cc1OC
Output: 15.5 µM (active)

Task: Sample CCCC(=O)NC(c1ccc(N(C)C)cc1)c1ccc2cccnc2c1O (configuration not stated) — what was its IC50?
Output: 17.7 µM (active)

Task: Give its IC50 value. Item: CN(C)c1cccc2c(C=C(C#N)C#N)ccc(N(C)C)c12
Output: 22.6 µM (active)
